test system: Wolbachia pipientis; assay: Anti-Wolbachia Cell-Based Screen; assay type: functional; parameters: scale not given: in the data most compounds retested in dose-response had high values; details: 5 µM
Among all 48,000 compounds or so, about 13,000 (27%) showed an effect of 50% or more. This is one part of the list.
metric: Percent Effect (%)
Answers are plain numbers, in %.

Below are worked cases with known answers.
1) CCN1CC2(CC1=O)CN(C(C)=O)CCN(S(=O)(=O)CC)C2 (centres undefined) = -5.362
2) O=C(c1cccnc1O)N(Cc1ccsc1)CC1CCCO1 (centres undefined) = -13.31
3) CC(C)Oc1ccc(C(=O)Cn2cnnc2[S+](C)[O-])cc1 (centres undefined) = 6.636

# evaluate next
Q) Given O=C(C1CCS(=O)(=O)C1)N1CCC(=Cc2cccc(F)c2)CC1 (centres undefined) , state its recorded Percent Effect.
A) 0.7274

* * *

test system: Wolbachia pipientis; assay: Anti-Wolbachia Cell-Based Screen; type: functional; design: scale not given: in the data most compounds retested in dose-response had high values; conditions: 5 µM
Among all 48,000 compounds or so, about 13,000 (27%) showed an effect of 50% or more. The list shows a part of the results.
metric: Percent Effect

Below: 4 molecules and their reported Percent Effect.
1. Cc1ccc(OCC(=O)N2C[C@@H]3CN(C)CCO[C@@H]3C2)cc1.O=C(O)C(F)(F)F = -15%
2. CCc1nc(C)cn1C(=O)Nc1ccc(C)cc1 = 109.3%
3. N#Cc1cccc(S(=O)(=O)N(CC2CCC2)c2cn[nH]c2)c1 = -4.525%
4. Cc1cccnc1N1CCC(c2nccn2Cc2cscn2)CC1 = -9.317%

Give Percent Effect for each listed item.
1. CN(C)c1nc2n(c(=O)n1)CCN2C(=O)Nc1ccccc1
2. CC(=O)c1c(C)nn(CC(=O)Nc2ccc(F)cc2)c1C
3. CCc1nc(C)cn1C(=O)Nc1ccccc1

A)
1. 0.604%
2. 6.274%
3. 107.6%

* * *

test system: Wolbachia pipientis; assay: Anti-Wolbachia Cell-Based Screen; assay type: functional; parameters: scale not given: in the data most compounds retested in dose-response had high values; conditions: 5 µM
Hit rate of the full screen: of about 48,000 compounds, about 13,000 (27%) showed an effect of 50% or more. This is one part of the list.
metric: Percent Effect (%)
Give bare numbers, in %.

1. NC(=O)C1CCN(CC(=O)N(Cc2ccccc2)Cc2nccs2)CC1 = 113.3
2. O=C(Nc1nccs1)NC1CCN(Cc2ccccc2)C1 (centres undefined) = -7.508
3. CCCN(Cc1ccc(C(=O)NCC2COCCO2)c(=O)[nH]1)C1CC1 (centres undefined) = 2.285

Here is another molecule to look at.
Q) Would you mind telling me what Percent Effect value was observed for COCCC1(C(=O)O)CCCN(CC(=O)NCCc2ccccc2)C1 (centres undefined) ?
A) -1.604

* * *

tested on: Wolbachia pipientis; assay: Anti-Wolbachia Cell-Based Screen; assay type: functional; parameters: scale not given: in the data most compounds retested in dose-response had high values; conditions: 5 µM
The campaign covered roughly 48,000 compounds. About 13,000 (27%) showed an effect of 50% or more. Some of the results follow.
metric: Percent Effect (%)
One number for each entry, in %.

Dear colleague, could you send me Percent Effect for each of the items below? Thanks.
1. Cc1nc2c(c(C)c1CC(=O)NCc1cccs1)c(=O)[nH]n2C
2. COc1ccc(N(Cc2ccco2)C(=O)C2CCCO2)cc1F (stereo not drawn)
3. COCC(=O)N(Cc1cccnc1)CC1CCN(C2CCCC2)CC1
4. O=C(O)C(F)(F)F.O=C(O)C(F)(F)F.O=C(O)C(F)(F)F.O=C(c1ccncc1)N1CCN(Cc2cccnc2)c2ncccc2C1
5. COCCn1nc(C(=O)N(C)Cc2ccc3ccccc3c2)ccc1=O
6. O=C(NCC1CCOCC1)c1cc(-c2cccnc2)c2cnccc2n1

A)
165.2
12.44
-6.321
105.3
98.47
94.41

For every item in the list below, what is its measured Percent Effect?
1. COCc1ccc(CNc2cncc(-n3cccn3)n2)cc1
2. O=C(c1ccc[nH]1)N1CCC(c2nccn2Cc2ccncc2)CC1

A)
1. 105.5
2. -7.637

* * *

tested on: Wolbachia pipientis; test: Anti-Wolbachia Cell-Based Screen; assay type: functional; set-up: scale not given: in the data most compounds retested in dose-response had high values; conditions: 5 µM
The campaign covered roughly 48,000 compounds. About 13,000 (27%) showed an effect of 50% or more. The list shows a part of the results.
metric: Percent Effect (%)
Answers are plain numbers, in %.

1. O=C(NC1CC1)C1CCc2nnc(-c3cccc(C(F)(F)F)c3)n21 (centres undefined) = 107.7

Need Percent Effect for each of these compounds.
1. CN(C(=O)c1cccc(OCC(F)F)n1)c1ccc2c(c1)CCO2
2. O=C(NC1CC1)C1CCCN(c2cccc(C(F)(F)F)n2)C1 (centres undefined)
3. CN1Cc2nc[nH]c2C[C@H]1C(=O)NC1CCCCC1
4. CCN(CCCN1CCOCC1)C(=O)c1cnn(CC)c1

A)
3.505
-13
0.3029
-6.092

For every listed record, write down its Percent Effect.
1. CCc1ccccc1OC1CN(C(=O)CN(C)Cc2ccncc2)C1
2. CSc1ccc2cc(CN(C)CCc3cn[nH]c3)c(=O)[nH]c2c1
3. COc1ncccc1C(=O)NC1(c2cccc(F)c2)CCOCC1
4. Cc1c(CN2CCCC(C(=O)CCc3ccccc3)C2)cc(C#N)n1C (centres undefined)

A)
1: 0.8406; 2: 4.017; 3: 0.9313; 4: 16.56

* * *

test system: Wolbachia pipientis; assay: Anti-Wolbachia Cell-Based Screen; assay type: functional; set-up: scale not given: in the data most compounds retested in dose-response had high values; conditions: 5 µM
Out of some 48,000 compounds screened, about 13,000 (27%) showed an effect of 50% or more. The list shows a part of the results.
metric: Percent Effect (%)
Answers are plain numbers, in %.

1) Cn1nccc1C(=O)N1CCC(n2cc(-c3ccsc3)nn2)CC1 = -17.39
2) Cc1cc(N2CCC(O)(CN(C)C(=O)CCN)C2)c2cnccc2n1 (stereo unspecified) = 98.27
3) O=C(NCCc1nncn1C1CC1)C1(Cc2ccccc2)CCC1 = 0.4274
4) N#Cc1cccc(CN2CCN(Cc3cscn3)CC2)c1 = -8.185
5) Cc1cc(C)cc(-c2ccc(CC3(C(=O)O)CCOCC3)cc2)c1 = 0.9737

Parameters: items (list). Returns: Percent Effect for each item.
1. COc1ncccc1C(=O)N1CCC(c2nnc(C3CC3)o2)CC1
2. O=S(=O)(NCCN1CCOCC1)c1cncc(Cl)c1
3. COc1nn(C)cc1C(=O)N1CCC(c2nnc(-c3ccsc3)o2)CC1
4. Cc1nn(C)c(C)c1C1COCCN1C(=O)NC1CC1 (stereo unspecified)
5. COc1nn(C)cc1C(=O)N1CCC(c2nnc(C(C)C)o2)CC1
6. Cc1ccc(O)c(C(=O)N2CCOCC2c2c(C)nn(C)c2C)c1 (stereo unspecified)

A)
16.61
-2.689
120.9
-3.324
80.59
110.1

* * *

system: Wolbachia pipientis; experiment: Anti-Wolbachia Cell-Based Screen; type: functional; set-up: scale not given: in the data most compounds retested in dose-response had high values; conditions: 5 µM
The campaign covered roughly 48,000 compounds. About 13,000 (27%) showed an effect of 50% or more. The list shows a part of the results.
metric: Percent Effect (%)
Answers are plain numbers, in %.

Examples from the recorded data:
1) CCc1[nH]ncc1C(=O)N1CCCC(n2nc(C)nc2C)C1 (centres undefined) = -3.385
2) Cn1cc(CN2CCc3ncnc(C4CCOC4)c3CC2)cn1 (centres undefined) = 2.928

I'm hoping you can list Percent Effect for every compound here, please.
1. COCc1ccc(C(=O)N2CCN(CC=C(C)C)[C@@H]3CS(=O)(=O)C[C@@H]32)o1
2. Cc1ccc(N2CCCC(NCc3ccccn3)C2)nn1 (centres undefined)
3. CC(C)C(=O)N1CCCC(Cc2ncccn2)C1 (centres undefined)
4. Cc1ccc(N2CCCC(NCc3cscn3)C2)nn1 (centres undefined)
5. Cc1nc(C)n(C2CCCN(C(=O)Cc3n[nH]c4ccccc34)C2)n1 (centres undefined)
6. CC(C)CN1C[C@H]2CCN(c3ncccn3)CC[C@H]2S1(=O)=O.O=C(O)C(F)(F)F
7. CC(=O)N1CCCC(C(=O)N2Cc3nc(C)n(C)c(=O)c3C2)C1 (centres undefined)
8. Cc1ccc(NC(=O)c2nc(N3CCCCC3)ncc2Cl)cc1I

A)
-1.241
95.9
110.8
-5.01
-3.08
-7.419
7.499
14.77

Provide Percent Effect values for the following items, in order.
1. Cc1ccc(N2CCCC(NCc3cc(C)on3)C2)nn1 (centres undefined)
2. CC1CCN(CC2CCCN(C(=O)Nc3ccccn3)C2)CC1 (centres undefined)
3. CCc1nc(CN(C)C2CCN(CCc3ccccn3)C2)no1 (centres undefined)
4. O=S(=O)(CCO)Cc1ccc(OCC(F)(F)F)cc1

A)
1. 114.3
2. -7.919
3. 16.6
4. 1.249

Entry source: ChEMBL document CHEMBL3988442
